- Measurement Target: human renin (Homo sapiens, UniProt P00797)
- Sequence (P00797 67-406): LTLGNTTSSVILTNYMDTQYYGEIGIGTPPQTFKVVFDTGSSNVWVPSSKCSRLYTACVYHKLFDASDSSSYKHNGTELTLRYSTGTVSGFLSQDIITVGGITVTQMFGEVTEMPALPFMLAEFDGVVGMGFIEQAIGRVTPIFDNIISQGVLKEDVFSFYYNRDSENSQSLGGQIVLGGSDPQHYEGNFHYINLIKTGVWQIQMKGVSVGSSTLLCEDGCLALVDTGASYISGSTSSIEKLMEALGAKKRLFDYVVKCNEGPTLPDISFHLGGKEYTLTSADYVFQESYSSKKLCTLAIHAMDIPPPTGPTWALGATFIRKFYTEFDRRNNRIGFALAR
- Test Name: Determination of renin IC50 by tGFP FRET assay
- Run Parameters: Human recombinant renin, tandem GFP substrate 650 nM, 60 min incubation with compound, pH 7.4, 11-point curve
Readout Kind: IC50 (µM)

> print(dat)
                                   compound  measurement.units  experimental.result
1  COc1ccccc1COCCCOc1ccc(N2C(=O)CNC[C@@H]2COc2ccc3ccncc3c2)cc1 [Example 51]                 µM                0.528
2  COc1ccccc1COCCCOc1ccc(N2C(=O)CNC[C@@H]2COc2cnccn2)cc1 [Example 79]                 µM                 76.4
3  COCCCN1C(=O)COc2ccc(SC[C@H]3CNCC(=O)N3c3ccc(OCCCOCc4ccccc4OC)cc3)cc21 [Example 128]                 µM              0.00018

P: COc1ccccc1COCCOCc1ccc(N2C(=O)CNC[C@@H]2COCc2ccc(F)cc2)cc1 [Example 74]
Q: COc1ccc2ccc(OC[C@H]3CNCC(=O)N3c3ccc(OCCCOCc4ccccc4OC)cc3)cc2c1 [Example 105]
R: COc1ccc(COC[C@H]2CNCCN2c2ccc(OCCCOCc3ccc(Cl)cc3)cc2)cc1 [Example 62]
S: COc1ccccc1COCCCOc1ccc(N2C(=O)CNC[C@@H]2COc2ccc3c(c2)N(CCCO)CCC3)cc1 [Example 44]
T: CC(=O)NCCN1CCCc2ccc(OC[C@H]3CNCC(=O)N3c3ccc(OCCCOCc4ccccc4F)cc3)cc21 [Example 126]
Form: Sort by [IC50] Order [ ascending ] Answer format: list of labels, ordered as asked.
T, S, Q, P, R

I: COc1ccc(COC[C@H]2CNCC(=O)N2c2ccc(OCCCOCc3ccccc3OC)cc2)cc1 [Example 12]
II: COc1ccccc1COCCCOc1ccc(N2C(=O)CNC[C@@H]2COCc2ccccc2Cl)cc1 [Example 14]
Which has the smaller recorded IC50, I or II ? # answer = label of selected item
II
(II: 0.223 µM, I: 3.86 µM)

a: COc1ccccc1COCCCOc1ccc(N2C(=O)CNC[C@@H]2COc2ccc(C(=O)N(C)C)cc2)cc1 [Example 95]
b: COc1ccccc1COCCCOc1ccc(N2CCNC[C@@H]2COCc2cccc(-c3ccccc3)c2)cc1 [Example 91]
c: COC(=O)CN1C(=O)CCc2ccc(OC[C@H]3CNCC(=O)N3c3ccc(OCCCOCc4ccccc4OC)cc3)cc21 [Example 116]
d: COc1ccc(COC[C@H]2CNCCN2c2ccc(OCCCCOc3ccccc3OC)cc2)cc1 [Example 75]
e: COc1ccccc1OCCCCOc1ccc(N2C(=O)CNC[C@@H]2COc2ccc3ccccc3c2)cc1 [Example 73]
Please order the records by their reported IC50, lowest number first. Provide the ranking by listing each label in its place in the requested order.
c, b, e, a, d

A: c1ccc(COCCCOc2ccc(N3CCNC[C@@H]3COc3ccc4ccccc4c3)cc2)cc1 [Example 38]
B: COc1ccccc1COCCCOc1ccc(N2C(=O)CNC[C@@H]2COc2ccc(-c3ccccc3)cc2)cc1 [Example 92]
C: COc1ccccc1COCCCOc1ccc(N2C(=O)CNC[C@@H]2COCc2ccc(Cl)c(C(F)(F)F)c2)cc1 [Example 24]
Please put the entries in order of rising IC50. Answer by naming the labels in the order asked.
C, A, B
